Experiment description: activity coefficient (dimensionless); of the first substance listed, at infinite dilution; xn = mol fraction of the nth substance listed
Assay conditions: 343.15 K; 101.33 kPa; Liquid; Chromatography; x1 = 0
Observed property: activity coefficient

Recorded results for 2 compounds are shown here.
| Compound | activity coefficient |
| --- | --- |
| c1ccccc1 [benzene] + C[n+]1ccn(CCCCS(=O)(=O)O)c1.O=S(=O)([N-]S(=O)(=O)C(F)(F)F)C(F)(F)F | 2.15 |
| CO [methanol] + C[n+]1ccn(CCCCS(=O)(=O)O)c1.O=S(=O)([N-]S(=O)(=O)C(F)(F)F)C(F)(F)F | 0.09 |

Shifting focus to the compound that follows.
q: Consider the compound CCO [ethanol] + C[n+]1ccn(CCCCS(=O)(=O)O)c1.O=S(=O)([N-]S(=O)(=O)C(F)(F)F)C(F)(F)F . State its measured activity coefficient.
a: 0.1
